The reader will find reported Aurora A % Activity Set1 values listed item by item below.
test-target: aurora A kinase (AURKA) (Homo sapiens)
Construct: purchased BPS Bioscience (assay run externally by the vendor)
Sequence (O14965 whole entry): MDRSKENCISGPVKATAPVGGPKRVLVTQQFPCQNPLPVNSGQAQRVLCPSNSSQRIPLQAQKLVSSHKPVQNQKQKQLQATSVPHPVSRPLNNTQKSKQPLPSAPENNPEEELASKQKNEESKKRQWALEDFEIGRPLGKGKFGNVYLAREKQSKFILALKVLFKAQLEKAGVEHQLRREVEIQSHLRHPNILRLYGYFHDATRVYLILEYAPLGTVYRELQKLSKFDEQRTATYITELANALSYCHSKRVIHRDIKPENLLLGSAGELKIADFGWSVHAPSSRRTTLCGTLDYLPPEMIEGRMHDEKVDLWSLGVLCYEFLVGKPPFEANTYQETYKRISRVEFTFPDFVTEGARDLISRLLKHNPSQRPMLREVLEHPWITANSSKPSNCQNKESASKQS
run-description: ADP-Glo kinase assay, Aurora A
Format: biochemical
applied-conditions: Log[nM] 1.0; Set1

As a guide, the following entries are already answered.
COc1ccc(Nc2ncnc3[nH]ccc23)cc1 [Compound 6]; 95%
Brc1ccc(Nc2ncnc3[nH]ccc23)cc1 [Compound 10]; 97%
Cc1cccc(Nc2ncnc3[nH]ccc23)c1 [Compound 12]; 100%
c1ccc(Nc2ncnc3[nH]ccc23)cc1 [Compound 1]; 87%
Clc1cccc(Nc2ncnc3[nH]ccc23)c1 [Compound 11]; 109%

Incoming: For Cc1ccccc1Nc1ncnc2[nH]ccc12 [Compound 15] , write its Aurora A % Activity Set1.
Outgoing: 102%

Incoming: For c1ccc(Cc2ccc(Nc3ncnc4[nH]ccc34)cc2)cc1 [Compound 18] , write its Aurora A % Activity Set1.
Outgoing: 103%

Incoming: For Nc1nc(Nc2cccc(Br)c2)c2cc[nH]c2n1 [Compound 8] , write its Aurora A % Activity Set1.
Outgoing: 110%

Incoming: For CN[C@@H]1C[C@H]2O[C@@](C)([C@@H]1OC)n1c3ccccc3c3c4c(c5c6ccccc6n2c5c31)C(=O)NC4 [Staurosporine, staurosporine, reference compound] , write its Aurora A % Activity Set1.
Outgoing: 102%
